- Tested on: Mouse liver microsome
- experimental.details: Liver microsomal stability assay, mouse
- Assay type: in vitro ADME
- Set-up: key: A: the percentage of a compound remains is greater than that of its deuterium non-enriched counterpart; B: a result otherwise
- test.context: 40 μM, 37° C., 30 min, 1 mg/ml microsome proteins; class relative to deuterium non-enriched counterpart
Structures can show the parent of a compound that is named as a salt.
measured.quantity: % of compound remained at the 30th minutes, Mouse liver microsome

{"compound": "[2H]C([2H])(c1ccnc2[nH]ccc12)n1ccc2c(NC(=O)Nc3cc(Cl)ccc3OC)cccc21 [Example 10, hydrochloride]", "result": "A"}
{"compound": "[2H]C([2H])([2H])Oc1ccc(Cl)cc1NC(=O)Nc1cccc2c1ccn2C([2H])([2H])c1ccnc(N)c1", "result": "B"}
{"compound": "[2H]C(c1c[nH]c2ncccc12)N1CCc2c(NC(=O)Nc3cc(Cl)ccc3OC([2H])([2H])[2H])cccc21 (centres unmarked)", "result": "B"}
{"compound": "Cl.[2H]C([2H])([2H])Oc1ccc(Cl)cc1NC(=O)Nc1cccc2c1CCN2C([2H])([2H])c1ccnc2[nH]ccc12", "result": "A"}
{"compound": "[2H]C([2H])(c1ccnc2[nH]ccc12)N1CCc2c(NC(=O)Nc3cc(Cl)ccc3F)cccc21 [Example 11, hydrochloride]", "result": "B"}
{"compound": "[2H]C(c1c[nH]c2ncccc12)n1ccc2c(NC(=O)Nc3cc(Cl)ccc3OC([2H])([2H])[2H])cccc21 (centres unmarked)", "result": "A"}
{"compound": "Cl.[2H]C([2H])([2H])Oc1ccc(Cl)cc1NC(=O)Nc1cccc2c1ccn2C([2H])([2H])c1ccnc2[nH]ccc12", "result": "A"}
{"compound": "[2H]C([2H])([2H])Oc1ccc(Cl)cc1NC(=O)Nc1cccc2c1CCN2Cc1ccnc(N)c1", "result": "B"}
